- Measurement target: T1, Human OSCAR (osteoclast-associated receptor), full length, on cells (human)
- T1 chain: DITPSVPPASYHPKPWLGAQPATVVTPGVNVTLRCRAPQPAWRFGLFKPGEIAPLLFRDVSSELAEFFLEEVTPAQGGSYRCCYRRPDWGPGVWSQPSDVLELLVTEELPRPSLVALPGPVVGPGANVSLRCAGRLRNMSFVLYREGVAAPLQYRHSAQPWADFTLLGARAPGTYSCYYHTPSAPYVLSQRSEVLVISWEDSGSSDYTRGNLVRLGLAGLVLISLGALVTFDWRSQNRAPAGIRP
- Measurement notes: cell-based or functional assay
// values below are reported IC50 (IL-8), ColI-induced IL-8 release from moDC, Donor 1
Form entry: value (nM) — number only.

Sample answers from the record:
{"Binder": "7F14A1 (antibody, V domains shown, Mouse anti-human OSCAR mAb; also called 7F14A4) VH: QVQLKESGPGLVAPSQSLSITCSVSGFSLTSYGVHWVRQPPGKGLEWLGVMWAGGSTNYNSALMSRLSISKDNSKSQVFLKMNSLQTDDSAMYYCALQKGYGNYFDYWGQGTTLTVSS VL: QIVLTQSPAIMSASPGEKVTMTCSASSSVNYMHWYQQKSGTSPKRWIYDTSNLASGVPTRFSGSGSGTSYSLTISSMEAEDAATYYCQQWSSDPLTFGAGTKLELKR", "Value reported": 0.23}
{"Binder": "4F3B (antibody, V domains shown, Mouse anti-human OSCAR mAb (its isotype control is mIgG1); The heavy chain entry covers only VH-CH1 and the start of the hinge; It was fluorescein-labelled in the peptide array and Alexa Fluor 647-labelled in the flow binning; also called mAb 4F3B) VH: QVQLQQSGAELAKPGASVKMSCKASGFTFTSYWMHWVKQRPGQGLEWIGYINPSTDYTEYNQKFKDKATLTADKSSSTAYMQLSSLTSEDSAVYYCARRSPFAMDYWGQGTSVTVSS VL: DIVMTQSPSSLTVTAGEKVTMSCKSSQSLLNSGNQKNYLTWYQQKPGQPPKVLIYWASTRESGVPDRFTGSGSGTDFTLTISSVQAEDLAVYYCQNDYSYPLTFGTGTKLELKR", "Value reported": 0.19}

## Task Which IC50 (IL-8), ColI-induced IL-8 release from moDC, Donor 1 reading was recorded for the binder 3F7A9 (antibody, V domains shown, Mouse anti-human OSCAR mAb (its isotype control is mIgG1); The heavy chain entry covers only VH-CH1 and the start of the hinge; also called 3F7A9-1) VH: EIQLQQSGPELVKPGASVKVSCKASGYVFTSYNMYWVKQSHGKSLEWIGYIDPYNGGTRYNQKFKGKATLTVDKSSSTAYMHLNSLTSEDSAVYYCARLDYYGNFYWGQGTTLTVSS VL: DIKMTQSPSSMYASLGERVTITCKASQDINSFLSWLQQKPGKSPKTLIYRANRLVDGVPSRFSGSGSGQDYSLTISSLEYEDMGIYYCLQYDDFPYTFGGGTKLEIKR ?
## Result 0.16
